Entries and their cytotoxicity at 10 µM
testProtocol: Toxicity liver stage against HepG2, at 10uM
Assay type: cell-based
Set-up: test concentration 10 uM, cell line HepG2-A16-CD81EGFP
conditions: human, HepG2-A16-CD81EGFP cells; read-out: INHIBITION
Give the value in % but do not write % after it.

(Q) Consider the molecule shown here: O=C(Nc1c(N2CCCC2)cccc1N1CCCC1)c1cnccn1 What is its recorded cytotoxicity at 10 µM?
(A) -50.9

(Q) Please give the result for Cc1[nH]ncc1C(=O)NCC(CO)Cc1ccc(Cl)cc1 (centres undefined) too.
(A) -0.0785

(Q) Please give the result for CCc1noc(CNc2cc3c(cc2Cl)OCCCO3)n1 too.
(A) -1.98

(Q) Please give the result for O=C(NC1CC1)C1CCc2nnc(-c3cccc(C(F)(F)F)c3)n21 (centres undefined) too.
(A) 8.6

(Q) Please give the result for CC(C)N1CCCC1c1csc(N)n1 (centres undefined) too.
(A) 2.33
